METHOD_DESCRIPTION: Plasma half-life in dogs in the presence of PEG 400/water(3:1)
Format: ADME, organism-based, Canis lupus familiaris
REPORTED_CONDITIONS: dog
MEASURED_METRIC: half-life

Briefly, half-life measured for N#Cc1cc(-c2ccoc2)c2ccc(OCc3cccc(C4(O)CC5COC(C4)O5)n3)cc2c1 (stereo unspecified) : 16 h
